targetOfAssay: Histone acetyltransferase KAT2B (Homo sapiens, UniProt Q92831)
Sequence (Q92831 whole entry, the tested form may be a part): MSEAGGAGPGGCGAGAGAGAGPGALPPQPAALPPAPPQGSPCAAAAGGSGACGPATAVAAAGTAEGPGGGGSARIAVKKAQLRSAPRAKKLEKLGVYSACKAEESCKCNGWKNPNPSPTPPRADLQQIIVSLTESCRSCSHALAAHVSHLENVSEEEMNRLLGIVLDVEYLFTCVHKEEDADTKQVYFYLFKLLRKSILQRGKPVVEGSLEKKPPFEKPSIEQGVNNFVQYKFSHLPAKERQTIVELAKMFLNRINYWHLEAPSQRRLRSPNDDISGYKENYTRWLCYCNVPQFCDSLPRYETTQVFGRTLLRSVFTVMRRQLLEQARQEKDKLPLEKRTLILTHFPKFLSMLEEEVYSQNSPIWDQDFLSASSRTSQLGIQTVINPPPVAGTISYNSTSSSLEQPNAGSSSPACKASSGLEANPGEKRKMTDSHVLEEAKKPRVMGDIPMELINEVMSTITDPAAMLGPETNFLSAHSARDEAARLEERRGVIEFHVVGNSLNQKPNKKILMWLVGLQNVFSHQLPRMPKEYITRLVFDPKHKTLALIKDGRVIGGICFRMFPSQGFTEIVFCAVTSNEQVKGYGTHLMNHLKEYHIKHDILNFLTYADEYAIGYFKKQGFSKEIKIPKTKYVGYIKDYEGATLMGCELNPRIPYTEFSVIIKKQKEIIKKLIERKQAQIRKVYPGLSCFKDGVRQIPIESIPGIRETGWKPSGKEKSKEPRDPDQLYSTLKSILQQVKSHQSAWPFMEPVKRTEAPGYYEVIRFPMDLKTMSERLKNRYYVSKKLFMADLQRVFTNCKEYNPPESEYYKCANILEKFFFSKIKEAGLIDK
method: Inhibition of GST-fused recombinant HAT PCAF expressed in Escherichia coli by filter assay
pIC50: −log10 of the molar value.
testReadout: pIC50

> print(dat)
                   inputsmiles  measurement
1  O=c1ccsn1-c1cc(F)c(F)c(F)c1         5.51
2           O=c1ccsn1-c1ccccc1         4.55

a. CN(C)c1ccc(-n2sccc2=O)cc1
b. CC(=O)OCc1cc(=O)n(-c2ccccc2)s1
Just tell me: smaller pIC50 value, a or b ? Label of pick, please.
b
(b: 3.79, a: 5.27)
